Numbers sourced from PubChem BioAssay (NCI).

# Tested on: SK-OV-3 ovarian
# Method Notes: NCI tumour cell line growth inhibition, 48 h
Value Type: TGI (µM)
Give your result in µM as a bare value.

Please give the measured TGI for this compound: N#CC1=C(N)OC2=C(CCCc3ccccc32)C1c1ccc([N+](=O)[O-])cc1 (stereo not given) 92.1

Further, for CCN(CC)c1ccc2cc3ccc(=[N+](CC)CC)cc-3oc2c1 ? 13.6

----------
# Tested on: A498 renal
# Method Notes: NCI tumour cell line growth inhibition, 48 h
Hi there, I'd appreciate the recorded TGI for every entry that follows.
Respond numerically; units are µM and should not be typed.

So what does the record say about TGI for Cc1ccc(C2C3Cc4ccccc4C3=NN2c2ccc(S(=O)(=O)NC(=O)NC3CCCCC3)cc2)cc1 (stereo not drawn) ? 39.6

Entry COc1ccc(/C=C/c2cc(OC)c(OC)c(OC)c2)cc1O[Si](C)(C)C(C)(C)C please 94.1

Now give it for O=C(/C=C\Sc1ccccn1)c1cccc(Br)c1 too. 36.5

What about NC(=O)c1c(Br)n(C2OC(CO)C(O)C2O)c2ncnc(N)c12 (stereo not drawn) ? 15.6

Check N#Cc1cnc(=O)n(C2CC(O)C(CO)O2)c1 (stereo not drawn) too. 82

Moving on to COC(=O)[C@@]1(C)CCC[C@]2(C)[C@H]3Cc4occc4[C@H](C)[C@@H]3CC[C@@]12O 46.6

Note, next up: C=Cc1c(C)c(O)cc2c1-c1ccc(O)c(C)c1CC2 27.7

Now try COc1ccc(C(=O)c2cc(OC)c(OC)c(OC)c2)cc1OC(=O)C(Cl)(Cl)Cl . 7.18

----------
Answer each item with its documented TGI.
# Test system: CAKI-1 renal
# Method Notes: NCI tumour cell line growth inhibition, 48 h

Returns the measured TGI for the input compound. Input: Cc1ccc(-c2nc3cc(N4CCN(C)CC4)c(F)cc3[nH]2)cc1 > 100 µM

Then CCc1cccc(C)c1NC(=O)CCc1n[nH]c(=S)o1 ? > 100 µM

How about CCN(Cc1ccccn1)c1ccc(CO)c(Cl)c1 ? > 100 µM

Same question, COC(=O)[C@@]1(C)CCC[C@]2(C)[C@H]3Cc4occc4[C@H](C)[C@@H]3CC[C@@]12O this time > 100 µM

Record: N#C/C(=C1C=C/C(=N/O)C(Cl)=C/1)c1ccc(Cl)cc1 14.1 µM

Ok, now c1ccc(C2N=NN(c3ccccc3)C2N2CCCCC2)cc1 (stereo not given) > 100 µM

Queued: O=C1CCC/C=C\C[C@H]2C=CC(=O)/C2=C/C[C@H](CCc2cccc(C(F)(F)F)c2)O1 16 µM

Try this compound too: Cc1nc2ccc(Cl)cc2c(Cl)c1CCCl > 100 µM

Continue with O=C(/C=C\Sc1ccccn1)c1cccc(Br)c1 17.2 µM

Same question for CC1NOC(=O)C1N=Nc1ccccc1Br (stereo not given) please. 38.4 µM

Another: CCc1n[nH]c(=O)n1N1C(=O)C2CCCCC2C1=O (stereo not given) > 100 µM

Same for COc1ccc(/C=c2/s/c(=C(\C#N)c3nc4ccccc4[nH]3)n(-c3ccccc3)c2=O)cc1 > 100 µM

Please do the same for COC(=O)/C=C/CC(=O)NS(C)(=O)=O as well. > 10 µM

How about Cn1cc/c(=N\N=c2/ccn(C)c3ccccc23)c2ccccc21 ? 33.2 µM

Param item: Cc1ccc(S(=O)(=O)N(/N=C/C=C/c2ccccc2)c2nnc(-c3ccccc3)c(-c3ccccc3)n2)cc1 57 µM

And CC1(C)COP(=S)(c2ccccn2)O[C@@H]1c1ccccc1 (stereo not given in full) ? > 100 µM

What would you report for O=C1CSC(c2cccc(Cl)c2)N1c1ccc(-n2c(-c3ccccc3)nc3ccccc3c2=O)cc1 (stereo not given) ? > 100 µM

Moving on to CCOC(=O)C(C)c1nc2cc3cccnc3c(Cl)c2[nH]c1=O (stereo not given) > 100 µM

Note, next up: Cc1ccc(NCCN(C)C)c2c(=O)c3cc(O)ccc3oc12 22.9 µM

Repeat with O=C(O)C1CCC(=O)N1C(=O)C(Cl)c1ccccc1 (stereo not given) > 100 µM

Follow-up entry: Cc1n[nH]c(=S)n1/N=C/c1ccc(-c2ccc(Cl)cc2)o1 > 100 µM

Likewise for O=C(O)c1cccc(SSc2cccc(C(=O)O)c2)c1 ? > 100 µM

And the next one, COc1cc2c(cc1O)CC[C@@H]1[C@@H]2CC[C@]2(C)[C@@H](OCCCN(C)C)CC[C@@H]12 ? 0.904 µM

What do you get for CC(=O)OCCn1c(Cc2ccc(C)cc2)nn(C(C)=O)c1=O ? > 100 µM

Request: CCN(CC)CCNC(=O)c1cc2cc(NC(=O)c3cc4cc(N)ccc4[nH]3)ccc2[nH]1 > 100 µM

Check C=CCN(N=O)C(=O)NCCCC(NC(C)=O)C(=O)NCc1ccccc1 (stereo not given) too. > 100 µM

Now the compound O=C1CCc2c(Oc3ccc4c(c3)[C@H]3[C@@H](O4)[C@@H]3c3nc4ccc(C(F)(F)F)cc4[nH]3)ccnc2N1 > 100 µM

Proceed to CCOC(=O)C1=C(C)NC(C)=C(C(=O)OCC)C1c1ccc(Cl)cc1 30.7 µM

Likewise for O=C(CC1(O)C(=O)Nc2ccccc21)c1ccc2ccccc2c1 (stereo not given) ? > 100 µM

Same thing, different compound: C[N+]1([O-])CCC(O)(C2CC2)CC1 (stereo not given) > 100 µM

Can you handle S=c1oc(CCCCCCCCc2nn(CNc3ccccc3)c(=S)o2)nn1CNc1ccccc1 next? > 100 µM

Now consider OCCCCOC(c1ccccc1)(c1ccccc1)c1ccccc1 . > 100 µM

O=C(Nc1ccc(F)cc1F)c1cc(F)ccc1O ? 11.6 µM

# iterate: Cn1c(-c2cccc(N)c2)[n+](C)c2ccccc21 > 100 µM

# iterate: O=C(Nc1sccc1S(=O)(=O)c1ccc(Cl)cc1)c1ccc(Cl)cc1 > 100 µM

Moving on to the next compound: Cn1c(=O)nc2n(-c3cccc(Cl)c3)c3ccccc3nc-2c1=O 70 µM

// same read-out, input: C=CC[C@@]1(OC(C)=O)C(=O)C(=O)OC1C1COC(C)(C)O1 (stereo not given in full) 4.42 µM

Item: C[C@@H](CO)C1=C(O)c2ccc3c(c2C(=O)C1=O)CCCC3(C)C > 100 µM

Same thing, different compound: N#C/C(=C\Nc1ccccn1)C(=O)C1CC1 > 100 µM

Please answer likewise for OC1c2[nH]c3ccccc3c2CCN2CCCCC12 (stereo not given) > 100 µM

Same thing, different compound: Cc1noc(C)c1-n1nc2ccc3nonc3c2n1 > 100 µM

Also CCN(CC)c1ccc2cc3ccc(=[N+](CC)CC)cc-3oc2c1 ? 18 µM

What do you get for OC1CCCCCCCCCCC1SCCCCl (stereo not given) ? > 100 µM

Proceed to COc1cccc(/C=C2\COc3ccc(O)c(O)c3C2=O)c1 2.71 µM

Now consider COc1ccc(C(=O)c2cc(OC)c(OC)c(OC)c2)cc1OC(=O)C(Cl)(Cl)Cl and answer again. > 100 µM

----------
# System: BT-549 breast
# Method Notes: NCI tumour cell line growth inhibition, 48 h; in the data active = GI50 below about 0.43 µM; inactive = the rest
Bench note: report the call from active, inactive

What did this assay record as the result for COc1ccc2c(c1)O/C(=C\c1ncc([N+](=O)[O-])n1C)C2=O ? inactive

Next compound: COC(=O)[C@@]1(C)CCC[C@]2(C)[C@H]3Cc4occc4[C@H](C)[C@@H]3CC[C@@]12O inactive

Try this compound too: Nc1cc(N)c2nc(-c3ccccc3)c(NCCc3ccc(Cl)c(Cl)c3)nc2c1 inactive

// next record CCn1nc(-c2ccc(C(=O)OC)cc2)nc2c(=O)n(C)c(=O)nc1-2 inactive

Check COc1ccc(C2=C(c3cn(C)c4ccccc34)C(=O)OC2)cc1OC too. inactive

And then CN1C[C@@H](c2ccc(Cl)cc2)[C@]2(NC(=S)N(c3ccc(F)c(Cl)c3)C2=O)[C@@]12C(=O)NC1C=CC(Cl)=C[C@H]12 (some centres undefined) , what is it? inactive

Also COc1ccc(C(=O)c2cc(OC)c(OC)c(OC)c2)cc1OC(=O)C(Cl)(Cl)Cl , if possible. active

What about this compound? COC(=O)c1c(C)c2n(c1C)C(=O)C(c1ccccc1)=C2 inactive

Please give the result for COc1cc2c(cc1O)CC[C@@H]1[C@@H]2CC[C@]2(C)[C@@H](OCCCN(C)C)CC[C@@H]12 too. active

O=C1CCc2c(Oc3ccc4c(c3)[C@H]3[C@@H](O4)[C@@H]3c3nc4ccc(C(F)(F)F)cc4[nH]3)ccnc2N1 , same question. inactive

And COc1ccc(-c2nc3c(-c4ccccc4)nc(-c4ccccc4)cn3c2-c2ccc(OC)cc2)cc1 ? inactive

Same for S=c1ssnc1-c1ccccn1 inactive

Thanks! And O=C1OCC(C#Cc2ccccc2)=C1Br ? inactive

And the next one, COc1cccc(/C=C2\COc3ccc(O)c(O)c3C2=O)c1 ? inactive
